Target: HiBit-BRG1 fusion protein (Homo sapiens)
Construct: expressed in transfected cells
Assay: HiBiT-BRG1 cell-based degradation assay (Nano-Glo HiBiT Lytic Detection, 24 h)
Settings: HeLa cell line expressing HiBit-BRG1 and LgBit, read-out: BRG1 HiBit Degradation Maximum (%)
ENDPOINT_NAME: Dmax

COMPOUND	ENDPOINT_NAME	RECORDED_MEASUREMENT
Cc1ncsc1-c1ccc([C@H](C)NC(=O)[C@@H]2C[C@@H](O)CN2C(=O)[C@@H](c2cc(OCCN3CC(c4cc5cc(-c6cc(F)cc(Cl)c6O)nnc5[nH]4)C3)no2)C(C)C)cc1 (racemic)	Dmax	< 50%
Cc1ncsc1-c1ccc([C@H](C)NC(=O)[C@@H]2C[C@@H](O)CN2C(=O)[C@@H](c2cc(OCCN3C[C@@H]4[C@H](C3)[C@H]4c3[nH]c4nnc(-c5ccccc5O)cc4c3C)no2)C(C)C)cc1	Dmax	> 75%
Cc1ncsc1-c1ccc([C@H](C)NC(=O)[C@@H]2C[C@@H](O)CN2C(=O)[C@@H](c2cc(OCCN3C[C@@H]4[C@H](C3)[C@H]4c3cc4cc(-c5cc(F)ccc5O)nnc4[nH]3)no2)C(C)C)cc1 (racemic)	Dmax	> 50%
Cc1ncsc1-c1ccc(CNC(=O)[C@@H]2C[C@@H](O)CN2C(=O)[C@@H](NC(=O)CCCCCCCCCCC(=O)N2CC(c3cc4cc(-c5ccccc5O)nnc4[nH]3)C2)C(C)(C)C)cc1	Dmax	< 50%

###

Target: HiBit-BRG1 fusion protein (Homo sapiens, UniProt P51532)
Construct: expressed in transfected cells
Sequence (P51532 whole entry, the tested form may be a part): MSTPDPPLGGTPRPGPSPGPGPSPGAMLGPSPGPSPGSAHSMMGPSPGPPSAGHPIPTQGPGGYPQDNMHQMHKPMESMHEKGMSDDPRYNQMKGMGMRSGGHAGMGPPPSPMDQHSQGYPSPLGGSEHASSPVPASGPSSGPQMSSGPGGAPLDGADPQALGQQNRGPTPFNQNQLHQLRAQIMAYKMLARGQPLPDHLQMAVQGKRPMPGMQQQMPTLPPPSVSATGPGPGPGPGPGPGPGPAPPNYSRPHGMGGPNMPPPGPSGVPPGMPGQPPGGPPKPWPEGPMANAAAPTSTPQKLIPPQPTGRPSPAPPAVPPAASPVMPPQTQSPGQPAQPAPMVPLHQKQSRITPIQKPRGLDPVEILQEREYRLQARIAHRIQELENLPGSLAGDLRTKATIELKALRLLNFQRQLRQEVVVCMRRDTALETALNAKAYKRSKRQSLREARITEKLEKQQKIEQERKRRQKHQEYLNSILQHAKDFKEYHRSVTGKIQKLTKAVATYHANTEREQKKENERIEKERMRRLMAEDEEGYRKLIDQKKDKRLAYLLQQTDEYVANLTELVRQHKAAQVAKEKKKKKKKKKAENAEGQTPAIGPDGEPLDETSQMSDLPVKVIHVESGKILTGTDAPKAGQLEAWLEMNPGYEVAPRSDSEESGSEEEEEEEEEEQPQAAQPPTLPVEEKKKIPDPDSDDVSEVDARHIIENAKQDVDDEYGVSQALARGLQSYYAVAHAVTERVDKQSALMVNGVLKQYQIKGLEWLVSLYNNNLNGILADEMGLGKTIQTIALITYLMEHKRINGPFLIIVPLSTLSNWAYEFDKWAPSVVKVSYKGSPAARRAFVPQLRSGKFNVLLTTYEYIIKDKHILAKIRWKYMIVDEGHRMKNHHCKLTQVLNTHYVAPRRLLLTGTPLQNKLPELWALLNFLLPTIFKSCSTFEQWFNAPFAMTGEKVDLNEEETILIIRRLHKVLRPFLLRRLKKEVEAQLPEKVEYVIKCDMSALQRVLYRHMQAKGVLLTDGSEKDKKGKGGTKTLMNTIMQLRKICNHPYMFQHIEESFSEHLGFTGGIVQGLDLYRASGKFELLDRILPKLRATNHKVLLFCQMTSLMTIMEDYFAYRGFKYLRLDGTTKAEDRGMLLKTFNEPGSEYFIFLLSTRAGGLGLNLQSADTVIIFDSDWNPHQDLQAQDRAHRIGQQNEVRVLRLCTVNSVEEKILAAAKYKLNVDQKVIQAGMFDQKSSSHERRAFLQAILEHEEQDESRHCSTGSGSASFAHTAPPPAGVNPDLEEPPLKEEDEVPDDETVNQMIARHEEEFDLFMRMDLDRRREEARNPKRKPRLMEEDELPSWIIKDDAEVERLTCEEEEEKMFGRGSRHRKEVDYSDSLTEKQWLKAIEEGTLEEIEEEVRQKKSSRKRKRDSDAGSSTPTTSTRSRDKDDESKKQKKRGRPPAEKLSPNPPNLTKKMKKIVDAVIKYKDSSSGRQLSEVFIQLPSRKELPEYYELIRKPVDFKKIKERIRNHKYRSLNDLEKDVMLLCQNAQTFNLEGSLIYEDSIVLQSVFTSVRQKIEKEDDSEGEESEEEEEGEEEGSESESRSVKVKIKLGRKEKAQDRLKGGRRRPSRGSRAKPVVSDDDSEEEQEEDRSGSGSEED
Assay: HiBiT-BRG1 cell-based degradation assay (Nano-Glo HiBiT Lytic Detection, 24 h)
Conditions: HeLa cell line expressing HiBit-BRG1 and LgBit, read-out: BRG1 HiBit Degradation Maximum (%)
ENDPOINT_NAME: Dmax

COMPOUND	RECORDED_MEASUREMENT
Cc1ncsc1-c1ccc([C@H](C)NC(=O)[C@@H]2C[C@@H](O)CN2C(=O)C(c2cc(N3CCC(C(=O)N4CC(c5cc6cc(-c7ccccc7O)nnc6[nH]5)C4)CC3)no2)C(C)C)cc1 (mixture of isomers) [Compound 274]	> 75%
O=C1CCC(N2C(=O)c3ccc(OCCN4CCC(C(=O)N5CC(c6cc7cc(-c8ccccc8O)nnc7[nH]6)C5)CC4)cc3C2=O)C(=O)N1 (stereo not drawn) [Compound 25]	< 50%
Cc1ncsc1-c1ccc([C@H](C)NC(=O)[C@@H]2C[C@@H](O)CN2C(=O)[C@H](c2cc(N3C[C@@H]4C[C@H]3CN4C(=O)[C@@H]3CCc4[nH]c5nnc(-c6ccccc6O)cc5c4C3)no2)C(C)C)cc1 (single isomer, unassigned) [Compound 100]	< 50%
Cc1ncsc1-c1ccc([C@H](C)NC(=O)[C@@H]2C[C@@H](O)CN2C(=O)[C@@H](c2cc(C3CCN(C(=O)[C@@H]4CCc5[nH]c6nnc(-c7ccccc7O)cc6c5C4)CC3)no2)C(C)C)cc1 (single isomer, unassigned) [Compound 166]	< 50%
Cc1ncsc1-c1ccc([C@H](C)NC(=O)[C@@H]2C[C@@H](O)CN2C(=O)[C@@H](c2cc(OCCN3Cc4[nH]c5nnc(-c6ccccc6O)cc5c4C3)no2)C(C)C)cc1 [Compound 123]	< 50%
Cc1ncsc1-c1ccc([C@H](C)NC(=O)[C@@H]2C[C@@H](O)CN2C(=O)[C@@H](c2cc([C@H]3CC[C@H](c4cnc(N5CCC(c6c[nH]c7nnc(-c8ccccc8O)cc67)CC5)nc4)CC3)no2)C(C)C)cc1 (racemic) [Compound 67]	> 75%
Cc1ncsc1-c1ccc(CNC(=O)[C@@H]2C[C@@H](O)CN2C(=O)[C@@H](NC(=O)CCCCCCCCCCCCC(=O)N2CC(c3c[nH]c4nnc(-c5ccccc5O)cc34)C2)C(C)(C)C)cc1 [Compound 44]	< 50%
Cc1ncsc1-c1ccc([C@H](C)NC(=O)[C@@H]2C[C@@H](O)CN2C(=O)[C@H](c2cc(C3CN(C(=O)[C@H]4CCc5[nH]c6nnc(-c7ccccc7O)cc6c5C4)C3)no2)C(C)C)cc1 (single isomer, unassigned) [Compound 153]	< 50%
Cc1ncsc1-c1ccc([C@H](C)NC(=O)[C@@H]2C[C@@H](O)CN2C(=O)[C@@H](c2cc(OCCNC3CC4(C3)CC(c3cc5cc(-c6ccccc6O)nnc5[nH]3)C4)no2)C(C)C)cc1 (mixture of isomers) [Compound 223]	> 75%
